# TARGET_ENTITY: human OXGR1 (Homo sapiens, UniProt Q96P68)
# METHOD_DESCRIPTION: Aequorin assay (calcium mobilization) in HEK293 cells overexpressing human OXGR1
# Assay type: cell-based
# CONDITION_INFO: human OXGR1, text summary of Figure 1F and Supplemental Figure 2 (aequorin and Fluo-4); read-out: EC50
# Description: Thirty-six hours after transfection, cells were maintained in serum-free medium for 12 hours and then loaded with 5 μM coelenterazine for 3 hours. Cells were trypsinized and resuspended at a density of 5 × 10^5 cells/mL in HBSS supplemented with 10 mM HEPES and 0.5% BSA. Cell suspensions of 100 μL were aliquoted into 96-well plates.
pEC50: −log10 of the molar value.
READOUT_TYPE: pEC50

Requested read-out: pEC50. Entry: C=C(CC(=O)O)C(=O)O [ITA, itaconate] 3.52 to 3.70

###

# TARGET_ENTITY: mouse OXGR1 (Mus musculus, UniProt Q6IYF8)
# Construct: expressed in transfected cells; host or cells: HEK293
# Sequence (Q6IYF8 whole entry): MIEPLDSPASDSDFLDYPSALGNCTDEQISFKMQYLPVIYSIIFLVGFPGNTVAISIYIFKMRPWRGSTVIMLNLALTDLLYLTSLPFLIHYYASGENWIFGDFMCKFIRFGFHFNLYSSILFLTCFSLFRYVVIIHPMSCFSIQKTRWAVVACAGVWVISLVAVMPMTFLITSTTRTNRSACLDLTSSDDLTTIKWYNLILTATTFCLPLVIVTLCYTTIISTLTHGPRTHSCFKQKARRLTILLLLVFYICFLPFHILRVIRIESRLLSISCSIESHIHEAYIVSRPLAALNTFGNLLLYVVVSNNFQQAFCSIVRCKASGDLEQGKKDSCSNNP
# METHOD_DESCRIPTION: Aequorin assay (calcium mobilization) in HEK293 cells overexpressing mouse OXGR1
# Type: cell-based
# CONDITION_INFO: EC50, aequorin assay, mOXGR1 in HEK293 cells
READOUT_TYPE: pEC50
Entry type: numeric. Quantity: pEC50, the -log10 of concentration in molar units.

What pEC50 value was documented for this compound, O=C(O)CCC(=O)C(=O)O [α-KG, α-ketoglutaric acid, reference compound] ? 3.62

###

# TARGET_ENTITY: human OXGR1 (Homo sapiens, UniProt Q96P68)
# METHOD_DESCRIPTION: Aequorin assay (calcium mobilization) in HEK293 cells overexpressing human OXGR1
# Format: cell-based
# CONDITION_INFO: OXGR1, as stated in abstract; read-out: EC50
# Experimental: Thirty-six hours after transfection, cells were maintained in serum-free medium for 12 hours and then loaded with 5 μM coelenterazine for 3 hours. Cells were trypsinized and resuspended at a density of 5 × 10^5 cells/mL in HBSS supplemented with 10 mM HEPES and 0.5% BSA. Cell suspensions of 100 μL were aliquoted into 96-well plates.
READOUT_TYPE: EC50

Quick one: EC50 of C=C(CC(=O)O)C(=O)O [ITA, itaconate] ? ~300 µM

###

# TARGET_ENTITY: human OXGR1 (Homo sapiens)
# METHOD_DESCRIPTION: Aequorin assay (calcium mobilization) in HEK293 cells overexpressing human OXGR1
# Assay type: cell-based
READOUT_TYPE: pEC50
In textbook form, pEC50 equals minus log to base ten of the concentration in mol/L.

I am curious: what pEC50 value has been reported for O=C(O)CCC(=O)C(=O)O [α-KG, α-ketoglutaric acid, reference compound] ? 3.60

###

# TARGET_ENTITY: human OXGR1 (Homo sapiens, UniProt Q96P68)
# METHOD_DESCRIPTION: Fluo-4 assay in HEK293 cells expressing human OXGR1
# Format: cell-based
READOUT_TYPE: pEC50
Just so you know, pEC50 here is -log10 of the concentration in molar units; reply with that number alone.

Any idea what its pEC50 is? The compound is O=C(O)CCC(=O)C(=O)O [α-KG, α-ketoglutaric acid, reference compound] 3.79

###

# TARGET_ENTITY: UniProtKB Q96P68
# METHOD_DESCRIPTION: Fluo-4 assay in HEK293 cells expressing human OXGR1
# Assay type: cell-based
# CONDITION_INFO: Fluo-4 assay, hOXGR1 in HEK293 cells; read-out: EC50
READOUT_TYPE: pEC50
pEC50 here: minus log base 10 of the concentration, concentration in moles per litre.

Please look up its pEC50: C=C(CC(=O)O)C(=O)O [ITA, itaconate] 3.66
